EXPERIMENTAL_SYSTEM: PaSecA (Pseudomonas aeruginosa, UniProt Q9LCT3)
Sequence (Q9LCT3 whole entry): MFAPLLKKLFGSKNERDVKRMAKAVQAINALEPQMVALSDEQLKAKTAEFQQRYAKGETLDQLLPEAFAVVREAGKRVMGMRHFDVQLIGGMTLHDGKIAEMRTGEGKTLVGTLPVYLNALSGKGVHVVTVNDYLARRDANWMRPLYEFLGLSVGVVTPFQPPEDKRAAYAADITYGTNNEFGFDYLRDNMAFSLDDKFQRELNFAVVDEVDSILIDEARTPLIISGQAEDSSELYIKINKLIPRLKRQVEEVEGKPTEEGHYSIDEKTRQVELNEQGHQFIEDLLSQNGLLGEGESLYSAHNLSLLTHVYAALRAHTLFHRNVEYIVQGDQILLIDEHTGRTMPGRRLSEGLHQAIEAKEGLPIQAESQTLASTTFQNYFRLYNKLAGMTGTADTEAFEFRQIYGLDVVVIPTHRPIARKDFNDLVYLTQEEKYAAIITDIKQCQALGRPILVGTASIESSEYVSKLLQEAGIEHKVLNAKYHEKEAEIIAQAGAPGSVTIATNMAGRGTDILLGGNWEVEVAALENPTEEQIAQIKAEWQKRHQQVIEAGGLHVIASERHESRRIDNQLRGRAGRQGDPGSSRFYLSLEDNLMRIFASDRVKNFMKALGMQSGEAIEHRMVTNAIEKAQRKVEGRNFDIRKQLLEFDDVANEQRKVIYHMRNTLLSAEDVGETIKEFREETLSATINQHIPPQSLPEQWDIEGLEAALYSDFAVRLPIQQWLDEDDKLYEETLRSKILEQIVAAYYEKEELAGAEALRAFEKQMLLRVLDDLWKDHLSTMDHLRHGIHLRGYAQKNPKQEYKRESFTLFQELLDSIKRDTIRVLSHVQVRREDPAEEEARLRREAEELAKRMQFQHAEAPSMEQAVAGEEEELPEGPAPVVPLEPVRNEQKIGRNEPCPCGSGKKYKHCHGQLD
METHOD_NOTES: SecA ion channel activity in Xenopus oocytes
Assay type: cell-based, P. aeruginosa
PROTOCOL_CONDITIONS: read-out: IC50 inhibition of SecA channel activity in oocytes; PaSecA, RE-13 memb +SecYEG
PROPERTY_MEASURED: pIC50
Numbers only, as −log10 of the molar value.

Asked: What measured pIC50 goes with O=C1OC2(c3cc(I)c(O)c(I)c3Oc3c2cc(I)c(O)c3I)c2c(Cl)c(Cl)c(Cl)c(Cl)c21 ?
Given back: 5.29

---

EXPERIMENTAL_SYSTEM: UniProt P28366
Sequence (P28366 whole entry): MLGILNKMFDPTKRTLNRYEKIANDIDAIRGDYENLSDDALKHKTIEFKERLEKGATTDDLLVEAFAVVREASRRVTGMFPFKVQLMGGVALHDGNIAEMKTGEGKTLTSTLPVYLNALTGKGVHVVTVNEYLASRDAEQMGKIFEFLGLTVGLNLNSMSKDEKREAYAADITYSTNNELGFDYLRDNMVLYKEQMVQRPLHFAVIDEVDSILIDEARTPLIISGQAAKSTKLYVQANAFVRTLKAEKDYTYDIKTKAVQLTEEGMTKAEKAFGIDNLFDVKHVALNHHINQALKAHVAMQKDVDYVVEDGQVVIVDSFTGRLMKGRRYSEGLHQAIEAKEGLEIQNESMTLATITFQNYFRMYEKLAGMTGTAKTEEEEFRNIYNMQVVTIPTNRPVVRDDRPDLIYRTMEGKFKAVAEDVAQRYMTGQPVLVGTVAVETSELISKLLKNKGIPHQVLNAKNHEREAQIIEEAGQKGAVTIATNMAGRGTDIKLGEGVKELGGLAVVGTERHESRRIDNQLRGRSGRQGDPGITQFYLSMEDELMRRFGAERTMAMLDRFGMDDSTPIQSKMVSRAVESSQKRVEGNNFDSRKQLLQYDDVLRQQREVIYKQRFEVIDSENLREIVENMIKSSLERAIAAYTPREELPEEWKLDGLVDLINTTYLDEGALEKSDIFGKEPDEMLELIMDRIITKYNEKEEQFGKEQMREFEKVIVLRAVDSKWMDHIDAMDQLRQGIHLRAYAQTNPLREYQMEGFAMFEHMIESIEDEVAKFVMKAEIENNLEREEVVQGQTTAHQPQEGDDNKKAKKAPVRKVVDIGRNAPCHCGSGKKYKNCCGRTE
METHOD_NOTES: SecA ion channel activity in Xenopus oocytes
Assay type: cell-based
PROTOCOL_CONDITIONS: read-out: IC50 inhibition of SecA channel activity in oocytes; BsSecA, BA13 memb
PROPERTY_MEASURED: IC50
Note: a bare number is incomplete; add the unit.

Asked: Data request, read-out IC50, for O=C1OC2(c3cc(I)c(O)c(I)c3Oc3c2cc(I)c(O)c3I)c2c(Cl)c(Cl)c(Cl)c(Cl)c21
Given back: 5.8 µM

---

EXPERIMENTAL_SYSTEM: PaSecA (Pseudomonas aeruginosa)
METHOD_NOTES: SecA ion channel activity in Xenopus oocytes
Type: cell-based, P. aeruginosa
PROTOCOL_CONDITIONS: read-out: IC50 inhibition of SecA channel activity in oocytes; PaSecA, BA13 memb
PROPERTY_MEASURED: pIC50
Give bare numbers, as −log10 of the molar value.

Asked: So what's the measured pIC50 for this one? O=C1OC2(c3cc(I)c(O)c(I)c3Oc3c2cc(I)c(O)c3I)c2c(Cl)c(Cl)c(Cl)c(Cl)c21
Given back: 5.29

---

EXPERIMENTAL_SYSTEM: EcSecA membrane ATPase (Escherichia coli)
Sequence (P10408 whole entry): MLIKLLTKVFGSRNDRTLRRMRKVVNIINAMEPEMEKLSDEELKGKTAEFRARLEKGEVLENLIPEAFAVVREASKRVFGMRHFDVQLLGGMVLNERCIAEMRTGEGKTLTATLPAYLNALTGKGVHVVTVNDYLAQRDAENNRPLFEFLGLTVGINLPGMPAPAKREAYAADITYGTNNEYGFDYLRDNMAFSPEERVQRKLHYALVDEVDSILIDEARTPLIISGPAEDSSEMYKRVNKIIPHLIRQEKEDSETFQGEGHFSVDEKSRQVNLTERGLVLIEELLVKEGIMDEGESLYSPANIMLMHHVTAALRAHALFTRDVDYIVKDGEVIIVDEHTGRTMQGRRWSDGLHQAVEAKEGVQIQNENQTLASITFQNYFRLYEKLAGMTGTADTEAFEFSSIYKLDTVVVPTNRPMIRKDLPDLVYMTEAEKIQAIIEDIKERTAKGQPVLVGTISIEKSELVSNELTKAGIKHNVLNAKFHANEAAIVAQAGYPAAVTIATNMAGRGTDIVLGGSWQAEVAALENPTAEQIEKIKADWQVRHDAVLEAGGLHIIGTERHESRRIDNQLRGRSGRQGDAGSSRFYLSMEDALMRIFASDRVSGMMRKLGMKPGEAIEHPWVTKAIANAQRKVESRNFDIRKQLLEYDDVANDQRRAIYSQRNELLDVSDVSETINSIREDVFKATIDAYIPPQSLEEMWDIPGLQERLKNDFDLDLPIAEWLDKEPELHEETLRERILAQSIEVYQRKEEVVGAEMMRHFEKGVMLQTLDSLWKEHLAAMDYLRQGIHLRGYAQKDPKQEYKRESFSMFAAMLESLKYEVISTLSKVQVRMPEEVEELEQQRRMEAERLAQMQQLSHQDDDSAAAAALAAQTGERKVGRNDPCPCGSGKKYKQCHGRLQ
PROPERTY_MEASURED: pKi
Give bare numbers, as −log10 of the molar value.

Asked: Would you kindly share the measured pKi for O=C1OC2(c3cc(I)c(O)c(I)c3Oc3c2cc(I)c(O)c3I)c2c(Cl)c(Cl)c(Cl)c(Cl)c21 ?
Given back: 5.85

---

EXPERIMENTAL_SYSTEM: EcSecA (Escherichia coli)
METHOD_NOTES: SecA ion channel activity in Xenopus oocytes
Assay type: cell-based
PROTOCOL_CONDITIONS: read-out: IC50 inhibition of SecA channel activity in oocytes; EcSecA, BA13 memb
PROPERTY_MEASURED: IC50 (µM)
Answers are plain numbers, in µM.

Asked: Query (compound): O=C1OC2(c3cc(I)c(O)c(I)c3Oc3c2cc(I)c(O)c3I)c2c(Cl)c(Cl)c(Cl)c(Cl)c21 ; field requested: IC50
Given back: 4.7

---

EXPERIMENTAL_SYSTEM: PaSecA (Pseudomonas aeruginosa)
METHOD_NOTES: SecA ion channel activity in Xenopus oocytes
Format: cell-based, P. aeruginosa
PROTOCOL_CONDITIONS: read-out: IC50 inhibition of SecA channel activity in oocytes; PaSecA, RE-13 memb +SecYEG-DF•C
PROPERTY_MEASURED: IC50 (µM)
Give bare numbers, in µM.

Asked: Would you kindly share the measured IC50 for O=C1OC2(c3cc(I)c(O)c(I)c3Oc3c2cc(I)c(O)c3I)c2c(Cl)c(Cl)c(Cl)c(Cl)c21 ?
Given back: 5.1
